Give inhibition for every item shown.
Species on record: Rattus norvegicus
Experiment: Inhibition of rat microsomal SOAT assessed as reduction in cholesteryl oleate formation from oleoyl co-enzyme A at 10 uM pretreated for 15 mins followed by oleoyl co-enzyme A addition measured after 10 mins by HPTLC method relative to control
Give bare numbers, in %.

Worked examples, 4 compounds total:
Record Smiles | inhibition, %
Cc1ccc(-c2nc(C)sc2-c2ccc(NC(=O)Nc3ccc(F)cc3F)cc2)cc1 | 26.6
COc1cc(NC(=O)Nc2ccc(-c3sc(C)nc3-c3ccc(F)cc3)cc2)cc(OC)c1OC | 42
COc1ccc(-c2nc(C)sc2-c2ccc(NC(=O)NCCN3CCOCC3)cc2)cc1 | 21.5
COc1ccc(-c2nc(NC(=O)Nc3ccc(F)cc3F)sc2-c2ccc(NS(C)(=O)=O)cc2)cc1 | 19.6

The compound O=C(Nc1ccccc1)Nc1nc(-c2ccccc2)c(-c2ccccc2)s1 showed inhibition equal to 10.6
